// reported IC50 per item
target: ShHTL7 (Striga hermonthica); assay: Competitive inhibition of ShHTL7 with Yoshimulactone Green (YLG) as substrate; type: biochemical; conditions: wild-type ShHTL7; average of 3; source data of Fig. 2a,b, Supplementary Figs. 8a, 9a, 20b; read-out: IC50, competitive ShHTL7 inhibition (YLG), source data average
Sequence (A0A0M3PNA2 entry or part of it): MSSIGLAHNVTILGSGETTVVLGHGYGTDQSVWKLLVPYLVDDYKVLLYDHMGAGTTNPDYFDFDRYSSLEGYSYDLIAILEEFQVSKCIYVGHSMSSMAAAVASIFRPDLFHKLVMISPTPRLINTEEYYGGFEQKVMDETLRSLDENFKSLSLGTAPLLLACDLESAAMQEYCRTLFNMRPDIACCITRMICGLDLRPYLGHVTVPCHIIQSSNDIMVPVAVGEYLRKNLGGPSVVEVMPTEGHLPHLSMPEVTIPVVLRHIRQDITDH
Supply the numeric figure in µM, leaving out any unit text.

Sample answers from the record:
[Q] So what does the record say about IC50 for CC1=CC(OC(=O)N2CCN(C(=O)COc3ccc(Br)cc3C)CC2)N(C)C1=O (stereo not shown) [4h] ?
[A] 4.84

[Q] I am curious: what IC50 value has been reported for CC1=CC(OC(=O)N2CCN(C(=O)COc3ccc(Br)cc3C)CC2)CC1=O (stereo not shown) [4g] ?
[A] 2.22

[Q] For the compound CC1=CC(OC(=O)N2CCN(C(=O)COc3ccc(Cl)cc3C)CC2)OC1=O (stereo not shown) [4e] , what IC50 is on record?
[A] 2.35

Here is another compound to look at.
[Q] # IC50 lookup, item CCCCOc1ccc(S(=O)(=O)N2CCN(C(=O)OC3C=C(C)C(=O)N3C)CC2)cc1 (stereo not shown) [4j]
[A] 105

----------
Tested on: PaKAI2s (5 KAI2 protein homologs in P. aegyptiaca)
Assay: YLG-based competition assay on KAI2 protein homologs of P. aegyptiaca
Type: biochemical, Phelipanche aegyptiaca
Conditions: KAI2d3; YLG competition; Supplementary Fig. 27; read-out: IC50, replicate 1
Source text: In P. aegyptiaca, 5 KAI2s have been proposed as the SL receptors for the regulation of seed germination. […] The high sequence similarity may explain the consistency of these compounds in inducing germination in both S. hermonthica and P. aegyptiaca. The excitation and emission wavelengths of YLG are 480 and 520 nm, respectively. We used a fluorescence spectrophotometer (CARY Eclipse) to detect the fluorescence intensity change of YLG during the enzymatic hydrolysis assay process. […]
reported.metric: pIC50
To interpret pIC50, take it as minus log10 of a concentration measured in moles per litre.

[Q] Can you look up the measured pIC50 of CC1=C[C@@H](OC(=O)N2CCN(C(=O)COc3ccc(Br)cc3C)CC2)OC1=O [(R)-4a] for me?
[A] 4.07

[Q] # input compound: CC1=CC(OC(=O)N2CCN(C(=O)COc3ccc(Br)cc3C)CC2)N(C)C1=O (centres unmarked) ; wanted: its pIC50
[A] 4.51

[Q] Sample CC1=C[C@H](O/C=C2/C(=O)O[C@@H]3c4ccccc4C[C@H]23)OC1=O (racemic) [rac-GR24, reference compound] — what was its pIC50?
[A] 5.64

[Q] Query: pIC50; subject: CC1=CC(OC(=O)N2CCN(C(=O)COc3ccc(Br)cc3C)CC2)OC1=O (centres unmarked)
[A] 4.51

[Q] Quick check: pIC50 of CC1=CC(CC(=O)N2CCN(C(=O)COc3ccc(Br)cc3C)CC2)OC1=O (centres unmarked) ?
[A] 4.29
